experimental-system: Aminopeptidase N (Sus scrofa, UniProt P15145)
Sequence (P15145 whole entry): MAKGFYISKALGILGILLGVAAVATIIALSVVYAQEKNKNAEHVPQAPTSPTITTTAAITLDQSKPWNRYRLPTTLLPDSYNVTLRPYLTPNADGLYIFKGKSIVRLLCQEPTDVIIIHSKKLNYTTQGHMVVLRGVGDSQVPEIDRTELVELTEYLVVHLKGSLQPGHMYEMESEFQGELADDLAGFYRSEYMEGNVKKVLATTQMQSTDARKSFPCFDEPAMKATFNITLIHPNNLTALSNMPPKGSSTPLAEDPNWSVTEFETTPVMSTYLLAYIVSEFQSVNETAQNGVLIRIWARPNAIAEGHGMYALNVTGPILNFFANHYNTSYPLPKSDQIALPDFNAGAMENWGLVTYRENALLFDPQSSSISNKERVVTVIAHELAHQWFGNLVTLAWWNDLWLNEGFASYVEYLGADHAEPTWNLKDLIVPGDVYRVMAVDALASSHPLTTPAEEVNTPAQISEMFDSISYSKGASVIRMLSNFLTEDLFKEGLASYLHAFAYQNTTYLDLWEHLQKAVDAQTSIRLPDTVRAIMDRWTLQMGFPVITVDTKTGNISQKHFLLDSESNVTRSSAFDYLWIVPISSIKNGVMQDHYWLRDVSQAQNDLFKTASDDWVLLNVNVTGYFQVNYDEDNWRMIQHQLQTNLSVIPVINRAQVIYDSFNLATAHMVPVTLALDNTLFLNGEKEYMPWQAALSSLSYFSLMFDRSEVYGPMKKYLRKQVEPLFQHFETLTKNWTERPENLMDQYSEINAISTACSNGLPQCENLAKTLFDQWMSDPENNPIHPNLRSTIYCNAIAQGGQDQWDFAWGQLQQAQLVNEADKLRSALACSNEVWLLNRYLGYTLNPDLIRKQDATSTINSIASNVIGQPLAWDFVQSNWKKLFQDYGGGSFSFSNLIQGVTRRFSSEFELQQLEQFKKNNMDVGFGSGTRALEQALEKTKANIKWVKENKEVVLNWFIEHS
attribute-measured: IC50 (µM)

> print(dat)
                                   compound                       experimental.system  attribute.measured  measurement
1  CC(C)C[C@H](NC(=O)[C@@H](NC(=O)[C@@H](O)CN)C(C)C)C(=O)O [L-isoserine-L-valine-L-leucyl (16h)]  Aminopeptidase N (Sus scrofa, UniProt P15145)                IC50          6.5
2  CC(C)[C@H](NC(=O)[C@H](Cc1ccccc1)NC(=O)[C@@H](O)CN)C(=O)O  Aminopeptidase N (Sus scrofa, UniProt P15145)                IC50           94
3  CC(C)[C@H](NC(=O)[C@H](Cc1ccc(O)cc1)NC(=O)[C@@H](O)CN)C(=O)O [L-isoserine-L-tyrosinase-L-valine (16e)]  Aminopeptidase N (Sus scrofa, UniProt P15145)                IC50         11.5
